Measured GI50 of individual entries
Test system: 786-0
MEASUREMENT NOTES: NCI tumour cell line growth inhibition, 48 h
Activity calls are given as the source filed them. No stated cut-off is given here; in the data, active = GI50 up to about 1.1 µM and inactive = higher.

O=c1/c(=C/c2ccc(-c3ccc(Cl)cc3Cl)o2)sc2n1[C@@H](c1ccc3c(c1)OCO3)C=C(c1cc(F)c(Cl)cc1Cl)N=2
42.9 µM (inactive)
COc1ccc(C(Nc2ncccn2)c2cc3c(cc2O)OCO3)cc1 (stereo not given)
18 µM (inactive)
CCCCCCCCCc1cc(O)c(O)cc1CCCCCCCCC
> 10 µM (inactive)

### Prompt I'm curious: which GI50 was measured for CCCCN(CCCC)CC(C(=O)Nc1ccc([N+](=O)[O-])cc1[N+](=O)[O-])/C(C)=N\NC(=O)c1ccncc1 (stereo not given) tested on 786-0?
### Response > 100 µM (inactive)

### Prompt Check Fc1cc(-c2cc(-c3ccccc3)no2)c(Cl)cc1Cl too.
### Response 15.5 µM (inactive)

### Prompt Check CN(C)/C=N/S(=O)(=O)c1nn2c(C=O)c(-c3ccc([N+](=O)[O-])cc3)nc2s1 too.
### Response 2.29 µM (inactive)

### Prompt Check O=[N+]([O-])c1ccc(Cl)cc1N/N=C/c1cccs1 too.
### Response > 100 µM (inactive)

### Prompt Check [N-]=[N+]=NI1OC(C(F)(F)F)(C(F)(F)F)c2ccccc21 too.
### Response 15.5 µM (inactive)

### Prompt Check C/N=C1\OC2=C3C(c4ccccc4)(O/C(=N/C)N(C)C3(c3ccccc3)OC2=O)N1C (stereo not given) too.
### Response > 100 µM (inactive)

### Prompt Check Cc1nn(C(=O)Cc2ccccc2)c2c1C(c1ccccc1O)SC(=N)N2 (stereo not given) too.
### Response > 100 µM (inactive)
